# Tested on: Escherichia coli
# runDescription: Antibacterial activity against Escherichia coli ATCC 35218 after 24 hrs by broth microdilution method
# Type: functional, organism-based
# runConditions: ATCC 35218, 24 h
IC50 overview
observable: IC50 (µM)

In [3]: df
Out[3]:
                                   molecule  experimentaltarget  observable  resultunits  inequalityoperator  quantitativeresult
0  CCOC1OC(c2ccccc2)=Cc2nc3ccccc3cc21 (configuration not stated)    Escherichia coli        IC50           µM                   =                  27
1  COC1OC(c2ccccc2)=Cc2nc3ccccc3cc21 (configuration not stated)    Escherichia coli        IC50           µM                   >                 100

----------
GI50 overview
# Test system: T47D
# runDescription: Growth inhibition of human T47D cells after 48 hrs by sulforhodamine B assay
# Format: functional
observable: GI50 (µM)

>>> df
                                   compound  observable  inequalityoperator  quantitativeresult
0  C=CCN1C(c2ccccc2)=Cc2nc3ccccc3cc2C1C(Cl)(Cl)Cl (stereo not drawn)        GI50                   =                  48
1  ClC(Cl)(Cl)C1c2cc3ccccc3nc2C=C(c2ccccc2)N1CCc1ccccc1 (stereo not drawn)        GI50                   =                  60
2  CCOc1ccc(CCN2C(c3ccccc3)=Cc3nc4ccccc4cc3C2C(Cl)(Cl)Cl)cc1OCC (stereo not drawn)        GI50                   =                  54
3  COC1OC(c2ccccc2)=Cc2nc3ccccc3cc21 (stereo not drawn)        GI50                   >                 100
4  CCOC1OC(c2ccccc2)=Cc2nc3ccccc3cc21 (stereo not drawn)        GI50                   >                 100
5  CCCCN1C(c2ccccc2)=Cc2nc3ccccc3cc2C1C(Cl)(Cl)Cl (stereo not drawn)        GI50                   =                  15
6  ClC(Cl)(Cl)C1c2cc3ccccc3nc2C=C(c2ccccc2)N1CCN1CCOCC1 (stereo not drawn)        GI50                   =                  26
7  ClC(Cl)(Cl)C1c2cc3ccccc3nc2C=C(c2ccccc2)N1Cc1ccccc1 (stereo not drawn)        GI50                   =                  71

----------
# Test system: Staphylococcus aureus
# runDescription: Antibacterial activity against Staphylococcus aureus NRS 107 after 24 hrs by broth microdilution method
# Type: functional, organism-based
# runConditions: NRS 107, 24 h
IC50 overview
observable: IC50 (µM)

>>> print(df.to_string())
                                   compound  observable  resultunits  inequalityoperator  quantitativeresult
0  CCOC1OC(c2ccccc2)=Cc2nc3ccccc3cc21 (configuration not stated)        IC50           µM                   =                  24
1  COC1OC(c2ccccc2)=Cc2nc3ccccc3cc21 (configuration not stated)        IC50           µM                   >                 100
